Target: soluble recombinant human LAG3 (Homo sapiens, UniProt P18627)
Construct: soluble recombinant human LAG3
Sequence (P18627 23-450 limits assumed): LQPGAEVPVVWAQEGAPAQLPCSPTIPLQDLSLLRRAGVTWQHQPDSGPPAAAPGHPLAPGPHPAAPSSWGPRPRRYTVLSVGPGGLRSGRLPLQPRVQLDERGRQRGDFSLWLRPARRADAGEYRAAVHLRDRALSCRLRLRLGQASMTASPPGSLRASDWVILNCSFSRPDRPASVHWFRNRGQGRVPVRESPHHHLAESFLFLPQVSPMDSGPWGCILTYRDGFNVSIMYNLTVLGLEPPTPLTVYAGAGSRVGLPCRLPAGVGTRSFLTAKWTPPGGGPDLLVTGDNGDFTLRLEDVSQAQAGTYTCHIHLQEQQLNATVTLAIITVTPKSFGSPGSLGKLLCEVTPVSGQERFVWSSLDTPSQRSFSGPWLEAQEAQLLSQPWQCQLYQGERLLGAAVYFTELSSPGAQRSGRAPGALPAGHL
Experiment: Clonal phage ELISA after phage display bio-panning
Type: binding
Details: coated
Quick list: Clonal Phase ELISA coated signal per entry.
// keep it numeric: no unit symbol after the value

sequenceCode	Clonal Phase ELISA coated signal
FYSPNHEEYHDWNVDSSVNE (LAG3-48 peptide)	0.227
HIQNWSYWLNQDMMNQQVWKS (LAG3-56 peptide)	0.529
KVWQVPQDTQHWLSPNFYSV (LAG3-51 peptide)	0.234
SAPWEPLHWPEDWWQGTGEW (LAG3-11 peptide)	0.271
HESGSVPHPWQFFTHYVS (LAG3-60 peptide)	0.330

Clonal Phase ELISA coated signal for DWNFQQWDWKKHNHLDSHVV (LAG3-42 peptide) ?
0.378

Clonal Phase ELISA coated signal for ACGPGSFGDCGGG (LAG3-54 peptide) ?
0.417

These entries and their values trace back to patent US12269880B2.
